- tgt: PDK2 (Homo sapiens, UniProt Q15119)
- runDescription: fluorescence titration
valueType: Kd

Input: # get_value(readout='Kd', item= E2 L1L2S-ML2 L1L2S tridomain (protein) HQKVPLPSLSPTMQAGTIARWEKKEGDKINEGDLIAEVETDKATVGFESLEECYMAKILVAEGTRDVPIGAIICITVGKPEDIEAFKNYTLDSSAAPTPQAAPAPTPAATASPPTPSAQAPGSSYPPHMQVLLPALSPTMTMGTVQRWEKKVGEKLSEGDLLAEIETDKATIGFEVQEEGYLAKILVPEGTRDVPLGTPLCIIVEKEADISAFADYRPTEVTDLKPQVPPPTPPPVAAVPPTPQPLAPTPSAPCPATPAGPKGRVFVSPLAKKLAVEKGIDLTQVKGTGPDGRITKKDIDSFV )
Output: 640 nM

Input: Given the binder E2 L1 L1 lipoyl domain (protein) HQKVPLPSLSPTMQAGTIARWEKKEGDKINEGDLIAEVETDKATVGFESLEECYMAKILVAEGTRDVPIGAIICITV , what is its reported Kd?
Output: 910 nM

Input: Data request, read-out Kd, for E3BP L3S' L3S' didomain (protein) PIKILMPSLSPTMEEGNIVKWLKKEGEAVSAGDALCEIETDKAVVTLDASDDGILAKIVVEEGSKNIRLGSLIGLIVEEGEDWKHVEIPKDVGPPPPVSKPSEPRPSPEPQISIPVKKEHIPGTLRFRLSPAARNILEKHSLDASQGTATGPRGIFTKEDALKLV
Output: 2070 nM

Input: Kd for E2 L2S L2S didomain (protein) HMQVLLPALSPTMTMGTVQRWEKKVGEKLSEGDLLAEIETDKATIGFEVQEEGYLAKILVPEGTRDVPLGTPLCIIVEKEADISAFADYRPTEVTDLKPQVPPPTPPPVAAVPPTPQPLAPTPSAPCPATPAGPKGRVFVSPLAKKLAVEKGIDLTQVKGTGPDGRITKKDIDSFV ?
Output: 1380 nM

Input: Using the record for E2 L1L2S-ML1 L1L2S tridomain (protein) HQKVPLPSLSPTMQAGTIARWEKKEGDKINEGDLIAEVETDKATVGFESLEECYMAKILVAEGTRDVPIGAIICITVGKPEDIEAFKNYTLDSSAAPTPQAAPAPTPAATASPPTPSAQAPGSSYPPHMQVLLPALSPTMTMGTVQRWEKKVGEKLSEGDLLAEIETDKATIGFEVQEEGYLAKILVPEGTRDVPLGTPLCIIVEKEADISAFADYRPTEVTDLKPQVPPPTPPPVAAVPPTPQPLAPTPSAPCPATPAGPKGRVFVSPLAKKLAVEKGIDLTQVKGTGPDGRITKKDIDSFV , report its Kd.
Output: 890 nM
